All figures here come from patent US20050032844A1.

- protocol text: in vitro
- settings: human, human liver microsomes, pH 7.4, apparent Km, formation of cotinine (mean±SD), 30 human liver microsomes
- Experimental: The reaction was started by adding NADPH. Ethyl acetate (3 mls) was added for extraction purposes. Data Analysis. […] [formula]
measurement kind: Km at 45 min (µM)
Kindly provide the numeric value in µM only, without the unit symbol.

**Q:** Item CN1CCC[C@H]1c1cccnc1 [nicotine, (S)-nicotine] has what recorded Km at 45 min?
**A:** 66.7

---

The reader will find Ki measurements below, all made with CYP2A6 (Homo sapiens).
Sequence (P11509 whole entry): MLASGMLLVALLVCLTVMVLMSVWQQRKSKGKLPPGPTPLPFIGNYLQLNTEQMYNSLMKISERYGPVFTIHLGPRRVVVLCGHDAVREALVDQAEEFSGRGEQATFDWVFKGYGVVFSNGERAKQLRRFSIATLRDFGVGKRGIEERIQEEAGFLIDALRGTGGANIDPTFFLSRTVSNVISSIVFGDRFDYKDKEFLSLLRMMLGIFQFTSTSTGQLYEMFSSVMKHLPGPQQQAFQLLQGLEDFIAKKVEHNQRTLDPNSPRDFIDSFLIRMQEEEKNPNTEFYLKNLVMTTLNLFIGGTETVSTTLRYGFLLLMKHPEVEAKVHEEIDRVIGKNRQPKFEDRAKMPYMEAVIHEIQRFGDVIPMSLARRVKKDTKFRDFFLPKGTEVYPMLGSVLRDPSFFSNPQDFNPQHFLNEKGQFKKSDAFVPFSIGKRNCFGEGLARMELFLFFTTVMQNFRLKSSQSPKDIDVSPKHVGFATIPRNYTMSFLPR
Include the unit after the number when you answer.

compound	Ki
CCN(CC)C(=S)S [diethyldithiocarbamic acid]	14.5 µM

Let us examine a further case.
**Q:** Lab note: need Ki with CYP2A6 (Homo sapiens) for entry O=C1C[C@@H](c2ccc(O)cc2)Oc2cc(O)cc(O)c21 [naringenin] , please look it up.
**A:** 4.3 µM

---

- protocol text: in vitro
- settings: human, human liver microsomes, pH 7.4, mean Km, nicotine to cotinine (mean±SD), 30 human livers
measurement kind: Km at 45 min (µM)
Kindly provide the numeric value in µM only, without the unit symbol.

**Q:** Item CN1CCC[C@H]1c1cccnc1 [nicotine, (S)-nicotine] has what recorded Km at 45 min?
**A:** 66.6
